pIC50: −log10 of the molar value.
Parameter 'readout' = pIC50; parameter 'system' = PI3Kα (Homo sapiens, UniProt P42336).
Sequence (P42336 whole entry, species assumed): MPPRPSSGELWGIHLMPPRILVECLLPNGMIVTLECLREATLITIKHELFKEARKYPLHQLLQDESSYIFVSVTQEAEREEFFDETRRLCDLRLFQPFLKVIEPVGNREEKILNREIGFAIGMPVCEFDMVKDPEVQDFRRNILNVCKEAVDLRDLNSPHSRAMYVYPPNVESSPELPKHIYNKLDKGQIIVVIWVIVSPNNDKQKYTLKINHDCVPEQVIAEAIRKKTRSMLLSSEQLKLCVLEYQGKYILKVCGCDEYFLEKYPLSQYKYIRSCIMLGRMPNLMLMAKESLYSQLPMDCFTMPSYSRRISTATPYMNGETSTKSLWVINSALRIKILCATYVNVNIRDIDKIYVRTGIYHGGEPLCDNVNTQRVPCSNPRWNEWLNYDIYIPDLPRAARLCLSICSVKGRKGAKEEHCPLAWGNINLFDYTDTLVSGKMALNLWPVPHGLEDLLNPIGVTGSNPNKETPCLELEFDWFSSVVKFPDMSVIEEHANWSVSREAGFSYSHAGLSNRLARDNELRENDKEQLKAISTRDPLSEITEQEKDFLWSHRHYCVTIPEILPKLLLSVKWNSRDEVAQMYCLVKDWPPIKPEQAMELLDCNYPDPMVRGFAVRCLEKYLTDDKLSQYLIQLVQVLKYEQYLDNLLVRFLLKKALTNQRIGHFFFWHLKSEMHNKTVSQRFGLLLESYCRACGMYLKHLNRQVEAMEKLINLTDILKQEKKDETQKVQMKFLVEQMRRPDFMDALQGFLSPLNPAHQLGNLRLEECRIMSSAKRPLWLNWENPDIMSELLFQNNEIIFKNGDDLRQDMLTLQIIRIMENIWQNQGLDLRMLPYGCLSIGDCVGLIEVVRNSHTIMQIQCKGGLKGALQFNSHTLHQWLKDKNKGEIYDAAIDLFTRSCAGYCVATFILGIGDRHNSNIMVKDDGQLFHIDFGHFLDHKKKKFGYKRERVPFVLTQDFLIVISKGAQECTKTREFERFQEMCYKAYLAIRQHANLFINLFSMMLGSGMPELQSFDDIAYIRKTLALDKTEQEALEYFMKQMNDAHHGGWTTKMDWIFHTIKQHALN
Sequence (P27986 whole entry partner, species assumed): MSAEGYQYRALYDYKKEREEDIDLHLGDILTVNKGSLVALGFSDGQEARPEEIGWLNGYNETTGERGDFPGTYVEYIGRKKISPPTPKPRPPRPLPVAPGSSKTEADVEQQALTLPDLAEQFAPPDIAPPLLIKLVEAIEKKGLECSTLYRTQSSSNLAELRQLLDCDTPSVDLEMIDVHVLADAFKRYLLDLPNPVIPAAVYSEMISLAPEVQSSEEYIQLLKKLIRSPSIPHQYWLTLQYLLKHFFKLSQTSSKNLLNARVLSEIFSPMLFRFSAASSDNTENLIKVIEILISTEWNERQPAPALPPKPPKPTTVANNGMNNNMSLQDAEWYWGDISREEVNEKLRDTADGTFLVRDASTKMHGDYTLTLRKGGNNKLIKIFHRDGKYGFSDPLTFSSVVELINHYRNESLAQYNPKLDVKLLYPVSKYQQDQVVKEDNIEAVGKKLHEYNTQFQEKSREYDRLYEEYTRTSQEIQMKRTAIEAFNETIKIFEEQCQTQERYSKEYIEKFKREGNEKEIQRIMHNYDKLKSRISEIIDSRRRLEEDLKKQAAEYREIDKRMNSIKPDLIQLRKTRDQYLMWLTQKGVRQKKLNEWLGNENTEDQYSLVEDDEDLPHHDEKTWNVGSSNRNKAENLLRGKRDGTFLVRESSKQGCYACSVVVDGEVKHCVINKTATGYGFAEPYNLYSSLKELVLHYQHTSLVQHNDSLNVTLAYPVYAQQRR
readout: pIC50

CC(C)n1ccc2c(N3CCOCC3)nc(-c3ccc(NC(=O)Nc4ccc(C(=O)N5CCN(C)CC5)cc4)cc3)nc21 [Compound 82] : 8.48

[A] O=C(Nc1ccncc1)Nc1ccc(-c2nc(N3CCOCC3)c3ccn(CC4NC(=O)NC4=O)c3n2)cc1 (stereo not shown) [Compound 35]
[B] O=C(Nc1ccncc1)Nc1ccc(-c2nc(N3CCOCC3)c3ccn(CCO)c3n2)cc1 [Compound 34]
[C] CC(C)(C)NCCn1ccc2c(N3CCOCC3)nc(-c3ccc(NC(=O)Nc4ccncc4)cc3)nc21 [Compound 31]
Sort entries by pIC50 from minimum to maximum value. Response format: the labels, sorted as the prompt asks.
C, A, B
(C: 7.07, A: 7.92, B: 8.40)

----------
Parameter 'readout' = pIC50; parameter 'system' = PI3Kα (Homo sapiens).
pIC50: −log10 of the molar value.

CCn1ccc2c(N3CCOCC3)nc(-c3ccc(NC(=O)Nc4ccc(C(=O)N5CCNCC5)cc4)cc3)nc21 : > 8.74
CCn1ccc2c(N3CCOCC3)nc(-c3ccc(NC(=O)Nc4ccc(C(=O)N5C[C@@H](C)N[C@@H](C)C5)cc4)cc3)nc21 : > 8.77

We next turn to a different compound, shown below.
Field: pIC50 (PI3Kα (Homo sapiens)). Entry: CC1(C)CN(C(=O)c2ccc(NC(=O)Nc3ccc(-c4nc(N5CCOCC5)c5ccn(CC(F)(F)F)c5n4)cc3)cc2)CCN1
> 8.72
